Please respond with reported IC50 for every item in the list.
tested-system: Avi-KRAS G12C (1-169) GppNHp/RAF1 RBD-3×FLAG (52-151) (Homo sapiens, UniProt P01116, G12C)
Construct: Avi-KRAS G12C (1-169) GppNHp/RAF1 RBD-3×FLAG (52-151)
Sequence (P01116 1-169 isoform P01116-2 G12C limits assumed): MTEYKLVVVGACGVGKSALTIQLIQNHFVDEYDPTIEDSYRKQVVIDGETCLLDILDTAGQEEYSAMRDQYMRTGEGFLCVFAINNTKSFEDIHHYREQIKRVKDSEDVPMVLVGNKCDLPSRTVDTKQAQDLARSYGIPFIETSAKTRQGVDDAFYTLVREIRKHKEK
test-method-notes: Raf1 RBD-KRAS G12C-GppNHp disruption (protein:protein interaction HTRF assay)

// compound `C=CC(=O)N1CC[C@@H](Oc2nc(OC[C@@]34CCCN3C[C@H](F)C4)nc3c(F)c(-c4ccc(F)c5sc(N)c(C#N)c45)c(Cl)cc23)[C@@H]1CC` , assay Avi-KRAS G12C (1-169) GppNHp/RAF1 RBD-3×FLAG (52-151) (Homo sapiens, UniProt P01116, G12C), IC50 value: > 20000 nM

// compound C=CC(=O)N1CCC(Oc2nc(OC[C@@]34CCCN3C[C@H](F)C4)nc3c(F)c(-c4ccc(F)c5sc(N)nc45)c(C(F)(F)F)cc23)C1(C)C (stereo partly shown) , assay Avi-KRAS G12C (1-169) GppNHp/RAF1 RBD-3×FLAG (52-151) (Homo sapiens, UniProt P01116, G12C), IC50 value: ≤ 500 nM

// compound C=CC(=O)N1CC[C@@H](Oc2nc(OC[C@@H]3C[C@@H](F)CN3C)nc3c(F)c(-c4ccc(F)c5sc(N)nc45)c(C(F)(F)F)cc23)C1 (atropisomer, axis not shown) [Compound 18] , assay Avi-KRAS G12C (1-169) GppNHp/RAF1 RBD-3×FLAG (52-151) (Homo sapiens, UniProt P01116, G12C), IC50 value: ≤ 500 nM

// compound C=CC(=O)N1CC[C@@H](Oc2nc(OC[C@@H]3C[C@@H](F)CN3C)nc3c(F)c(-c4ccc(F)c5sc(N)nc45)c(C(F)(F)F)cc23)C1 (atropisomer, axis not shown) [Compound 19] , assay Avi-KRAS G12C (1-169) GppNHp/RAF1 RBD-3×FLAG (52-151) (Homo sapiens, UniProt P01116, G12C), IC50 value: 5000 to 20000 nM

// compound `C=CC(=O)N1C[C@H](Oc2nc(OC[C@@]34CCCN3C[C@H](F)C4)nc3c(F)c(-c4ccc(F)c5sc(N)nc45)c(C(F)(F)F)cc23)[C@@H](F)C1` , assay Avi-KRAS G12C (1-169) GppNHp/RAF1 RBD-3×FLAG (52-151) (Homo sapiens, UniProt P01116, G12C), IC50 value: ≤ 500 nM

Could you tell me IC50 for each of these compounds? They are listed below.
1. C=CC(=O)N1C[C@H](Oc2nc(OC[C@@]34CCCN3C[C@H](F)C4)nc3c(F)c(-c4ccc(F)c5sc(N)c(C#N)c45)ccc23)C[C@H]1C
2. CC#CC(=O)N1CC(Oc2nc(OC[C@@H]3CCCN3C)nc3c(F)c(-c4ccc(F)c5sc(N)nc45)c(Cl)cc23)C1
3. C=CC(=O)N1CC[C@@H](Oc2nc(OC[C@@]34CCCN3C[C@H](F)C4)nc3c(F)c(-c4ccc(F)c5sc(N)c(C#N)c45)c(C(F)(F)F)cc23)[C@H]1C [Compound 62]
4. C=CC(=O)N1CC[C@@H](Oc2nc(OC[C@@]34CCCN3C[C@H](F)C4)nc3c(F)c(-c4ccc(F)c5sc(N)nc45)ccc23)[C@H]1C
5. C=CC(=O)N1CC[C@@H](Oc2nc(OC[C@@]34CCCN3C[C@H](F)C4)nc3c(F)c(-c4ccc(F)c5sc(N)c(C#N)c45)c(C(F)(F)F)cc23)[C@H]1C (single isomer, unassigned) [Compound 63]

≤ 500 nM
500 to 5000 nM
≤ 500 nM
≤ 500 nM
≤ 500 nM

----------
Please respond with reported pIC50 for every item in the list.
tested-system: Avi-KRAS G12C (1-169) GppNHp/RAF1 RBD-3×FLAG (52-151) (Homo sapiens, UniProt P01116, G12C)
Construct: Avi-KRAS G12C (1-169) GppNHp/RAF1 RBD-3×FLAG (52-151)
test-method-notes: Raf1 RBD-KRAS G12C-GppNHp disruption (protein:protein interaction HTRF assay)
pIC50: −log10 of the molar value.

Here are 4 compounds together with their reported answers.
For this compound ( `C=CC(=O)N1C[C@@H](F)[C@@H](Oc2nc(OC[C@@]34CCCN3C[C@H](F)C4)nc3c(F)c(-c4ccc(F)c5sc(N)c(C#N)c45)ncc23)C1` ), measured pIC50 is ≥ 6.30

For this compound ( `C=CC(=O)N1C[C@H](Oc2nc(OC[C@@]34CCCN3C[C@H](F)C4)nc3c(F)c(-c4ccc(F)c5sc(N)nc45)c(C(F)(F)F)cc23)C[C@@H]1CO` ), measured pIC50 is ≥ 6.30

For this compound ( C=CC(=O)N1CC[C@@H](Oc2nc(OC[C@@H]3CC(C)(C)CN3C)nc3c(F)c(-c4ccc(F)c5sc(N)nc45)c(C(F)(F)F)cc23)C1 (atropisomer, axis not shown) [Compound 16] ), measured pIC50 is 5.30 to 6.30

For this compound ( `C=CC(=O)N1CC[C@@H](Oc2nc(OC[C@@]34CCCN3C[C@H](F)C4)nc3c(F)c(-c4ccc(F)c5sc(N)c(C#N)c45)ccc23)C1` ), measured pIC50 is ≥ 6.30

Consider now this further compound.
For this compound ( C=CC(=O)N1C[C@H](Oc2nc(OC[C@@]34CCCN3C[C@H](F)C4)nc3c(F)c(-c4ccc(F)c5sc(N)c(C#N)c45)c(C(F)(F)F)cc23)C[C@H]1COC (atropisomer, axis not shown) [Compound 89] ), measured pIC50 is ≥ 6.30

----------
tested-system: Avi-KRAS G12C (1-169) GppNHp/RAF1 RBD-3×FLAG (52-151) (Homo sapiens, UniProt P01116, G12C)
Construct: Avi-KRAS G12C (1-169) GppNHp/RAF1 RBD-3×FLAG (52-151)
test-method-notes: Raf1 RBD-KRAS G12C-GppNHp disruption (protein:protein interaction HTRF assay)
pIC50: −log10 of the molar value.
readout: pIC50

Here are 3 compounds together with their reported answers.
For this compound ( `C=CC(=O)N1CC[C@@H](Oc2nc(OC[C@@]34CCCN3C[C@H](F)C4)nc3c(F)c(-c4ccc(F)c5sc(N)c(C#N)c45)ccc23)[C@@H]1C` ), measured pIC50 is 5.30 to 6.30

For this compound ( `C=CC(=O)N1CC[C@@H](Oc2nc(OC[C@@]34CCCN3C[C@H](F)C4)nc3c(F)c(-c4ccc(F)c5sc(N)c(C#N)c45)c(C(F)(F)F)cc23)[C@@H]1COC` ), measured pIC50 is ≥ 6.30

For this compound ( C=CC(=O)N1CC[C@@H](Oc2nc(OC[C@@]34CCCN3C[C@H](F)C4)nc3c(F)c(-c4ccc(F)c5sc(N)nc45)c(C(F)(F)F)cc23)C1 (single isomer, unassigned) [Compound 11] ), measured pIC50 is ≥ 6.30

Could you tell me pIC50 for each of these compounds? They are listed below.
1. C=CC(=O)N1CC[C@H](Oc2nc(OC[C@@]34CCCN3C[C@H](F)C4)nc3c(F)c(-c4ccc(F)c5sc(N)nc45)c(C(F)(F)F)cc23)C1 (atropisomer, axis not shown) [Compound 9]
2. C=CC(=O)N1CC[C@@H](Oc2nc(OC[C@@]34CCCN3C[C@H](F)C4)nc3c(F)c(-c4ccc(F)c5sc(N)nc45)ncc23)C1
3. C=CC(=O)N1C[C@@H](C)[C@@H](Oc2nc(OC[C@@]34CCCN3C[C@H](F)C4)nc3c(F)c(-c4ccc(F)c5sc(N)nc45)c(C(F)(F)F)cc23)C1 (atropisomer, axis not shown) [Compound 27]
4. C=CC(=O)N1CC[C@@H](Oc2nc(OC[C@@]34CCCN3C[C@H](F)C4)nc3c(F)c(-c4ccc(F)c5sc(N)c(C#N)c45)c(C(F)(F)F)cc23)[C@@H]1CC
5. C=CC(=O)N1CC(Oc2nc(OC[C@@H]3C[C@@H](F)CN3C)nc3c(F)c(-c4ccc(F)c5sc(N)nc45)c(C(F)(F)F)cc23)C1
6. C=CC(=O)N1CC[C@@H](Oc2nc(OC[C@@H]3C[C@@H](OC)CN3C)nc3c(F)c(-c4ccc(F)c5sc(N)nc45)c(C(F)(F)F)cc23)C1 (single isomer, unassigned) [Compound 15]
7. C=CC(=O)N1CC[C@@H](Oc2nc(OC[C@@]34CCCN3C[C@H](F)C4)nc3cc(-c4ccc(F)c5sc(N)c(C#N)c45)c(F)cc23)[C@@H]1COC

["5.30 to 6.30", "5.30 to 6.30", "≥ 6.30", "5.30 to 6.30", "5.30 to 6.30", "< 4.70", "< 4.70"]

// provenance: patent US20250188085A1
